Attribute: half-life
assay: In vitro metabolic stability, liver microsome incubation (rat); type: in vitro ADME; details: rat, liver microsomes; 1 mg/mL liver microsome protein, 37° C.; read-out: T1/2 in rat liver microsome min

compound: CCC(F)(F)n1cc2c(S(N)(=O)=O)cc(NC(=O)Cc3ccccc3Cl)cc2n1
half-life (h): 2.26
//
compound: NS(=O)(=O)c1cc(NC(=O)Cc2ccccc2Cl)cc2nn(CC3CCCO3)cc12 (stereo not drawn)
half-life (h): 0.226
//
compound: NS(=O)(=O)c1cc(NC(=O)Cc2ccccc2Cl)cc2c1cnn2CC1CCOC1 (stereo not drawn) [Compound 110A]
half-life (h): 0.335
//
compound: NS(=O)(=O)c1cc(NC(=O)Cc2ccccc2Cl)cc2c1cnn2CC1CCCO1 (stereo not drawn) [Compound 120A]
half-life (h): 0.137
//
compound: C=CC(F)(F)n1cc2c(S(N)(=O)=O)cc(NC(=O)Cc3ccccc3Cl)cc2n1
half-life (h): 3.22
//
compound: CCCn1cc2c(S(N)(=O)=O)cc(NC(=O)Cc3ccccc3Cl)cc2n1
half-life (h): 2.37

----------
test: In vitro cytotoxicity assay in HepG2 cells, CCK-8 method; settings: human

molecule: NS(=O)(=O)c1cc(NC(=O)Cc2ccccc2Cl)cc2c1cnn2CC1CCC1 [Compound 24-B]
CC50 at 48 h: > 200 µM

molecule: CCC(F)(F)n1cc2c(S(N)(=O)=O)cc(NC(=O)Cc3ccccc3Cl)cc2n1 [Compound 133]
CC50 at 48 h: > 100 µM

molecule: CC(C)OCCn1cc2c(S(N)(=O)=O)cc(NC(=O)Cc3ccccc3Cl)cc2n1 [Compound 26-A]
CC50 at 48 h: > 200 µM

molecule: COc1ccc(Cn2cc3c(S(N)(=O)=O)cc(NC(=O)Cc4ccccc4Cl)cc3n2)cc1 [Compound 35-A]
CC50 at 48 h: > 200 µM

molecule: CC(C)CCn1cc2c(S(N)(=O)=O)cc(NC(=O)Cc3ccccc3Cl)cc2n1 [Compound 8-A]
CC50 at 48 h: > 200 µM

----------
Attribute: pIC50
Target: hP2X4 (human purinergic P2X receptor subtype 4) (Homo sapiens, UniProt Q99571)
Experiment: FLIPR assay of intracellular calcium increase induced by activation of hP2X4 expressed in HEK293 cells (agonist BZ-ATP 2.5 μM)
Format: cell-based
Conditions: HEK293 cells stably expressing hP2X4, FLIPR, class symbols, read-out: P2X4 IC50
Protocol: The antagonist property of the compounds disclosed herein was determined using the FLIPR (fluorescence imaging plate reader) method, wherein the compounds are inhibitors for the intracellular calcium increase induced by activation of hP2X4 (human purinergic P2X receptor subtype 4, accession No. NM_001256796.2) expressed in HEK293 cells (human renal epithelial cell line, ATCC). […]
pIC50: −log10 of the molar value.

molecule: N#Cc1ccc(Cn2cc3c(S(N)(=O)=O)cc(NC(=O)Cc4ccccc4Cl)cc3n2)cc1
pIC50: ≥ 8.00

molecule: COc1ccc(Cn2cc3c(S(N)(=O)=O)cc(NC(=O)Cc4ccccc4Cl)cc3n2)cc1F
pIC50: ≥ 8.00

molecule: Cc1ccc(Cn2cc3c(S(N)(=O)=O)cc(NC(=O)Cc4ccccc4Cl)cc3n2)cc1
pIC50: ≥ 8.00

molecule: CC(C)NCCn1cc2c(S(N)(=O)=O)cc(NC(=O)Cc3ccccc3Cl)cc2n1
pIC50: 7.30 to 8.00

molecule: NS(=O)(=O)c1cc(NC(=O)Cc2ccccc2Cl)cc2nc(C3CC3)[nH]c12
pIC50: 5.30 to 6.70

molecule: COc1ccccc1Cn1cc2c(S(N)(=O)=O)cc(NC(=O)Cc3ccccc3Cl)cc2n1
pIC50: 7.30 to 8.00

molecule: NS(=O)(=O)c1cc(NC(=O)Cc2ccccc2Cl)cc2nn(CCO)cc12
pIC50: 5.30 to 6.70

molecule: COc1ccc(Cn2cc3c(S(N)(=O)=O)cc(NC(=O)Cc4ccccc4Cl)cc3n2)c(Br)c1
pIC50: ≥ 8.00

molecule: CCC1(n2cc3c(S(N)(=O)=O)cc(NC(=O)Cc4ccccc4Cl)cc3n2)CC1
pIC50: 7.30 to 8.00

molecule: NS(=O)(=O)c1cc(NC(=O)Cc2ccccc2Cl)cc2[nH]ccc12
pIC50: 7.30 to 8.00

molecule: NS(=O)(=O)c1cc(NC(=O)Cc2ccccc2Cl)cc2c1cnn2C(=O)C1CC1
pIC50: 7.30 to 8.00

molecule: CC(C)OCCn1ncc2c(S(N)(=O)=O)cc(NC(=O)Cc3ccccc3Cl)cc21
pIC50: 5.30 to 6.70

molecule: NS(=O)(=O)c1cc(NC(=O)Cc2ccccc2Cl)cc2nn(CCF)cc12
pIC50: ≥ 8.00

molecule: NS(=O)(=O)c1cc(NC(=O)Cc2ccccc2Cl)cc2nc(-c3ccccc3)[nH]c12
pIC50: 5.30 to 6.70

molecule: CC(C)C(C)n1cc2c(S(N)(=O)=O)cc(NC(=O)Cc3ccccc3Cl)cc2n1 (stereo not drawn)
pIC50: 7.30 to 8.00

molecule: NS(=O)(=O)c1cc(NC(=O)Cc2ccccc2Cl)cc2nn(CC3CCOCC3)cc12
pIC50: 6.70 to 7.30

molecule: CC(C)(C)n1cc2c(S(N)(=O)=O)cc(NC(=O)Cc3ccccc3Cl)cc2n1
pIC50: ≥ 8.00

molecule: NS(=O)(=O)c1cc(NC(=O)Cc2ccccc2Cl)cc2c1cnn2C(F)F
pIC50: 7.30 to 8.00

molecule: NS(=O)(=O)c1cc(NC(=O)Cc2ccccc2Cl)cc2nn(CC3CCOC3)cc12 (stereo not drawn)
pIC50: 6.70 to 7.30

molecule: COc1ccc(Cn2cc3c(S(N)(=O)=O)cc(NC(=O)Cc4ccccc4Cl)cc3n2)cc1
pIC50: 7.30 to 8.00

molecule: NS(=O)(=O)c1cc(NC(=O)Cc2ccccc2Cl)cc2nn(CC3CCC(O)CC3)cc12 (stereo not drawn)
pIC50: 6.70 to 7.30

molecule: CC(C)(F)n1cc2c(S(N)(=O)=O)cc(NC(=O)Cc3ccccc3Cl)cc2n1
pIC50: 7.30 to 8.00

molecule: NS(=O)(=O)c1cc(NC(=O)Cc2ccccc2Cl)cc2nn(Cc3ccc(F)cc3)cc12
pIC50: ≥ 8.00

molecule: COc1ccc(Cn2cc3c(S(N)(=O)=O)cc(NC(=O)Cc4ccccc4Cl)cc3n2)c(Cl)c1
pIC50: ≥ 8.00

molecule: COc1ccccc1CC(=O)Nc1cc(S(N)(=O)=O)c2cn(C(F)F)nc2c1
pIC50: 5.30 to 6.70

molecule: CC(C)C(=O)n1ncc2c(S(N)(=O)=O)cc(NC(=O)Cc3ccccc3Cl)cc21
pIC50: 5.30 to 6.70

molecule: COc1ccc(Cn2cc3c(S(N)(=O)=O)cc(NC(=O)Cc4ccccc4Cl)cc3n2)cn1
pIC50: ≥ 8.00

molecule: CC(C)(C1CC1)n1cc2c(S(N)(=O)=O)cc(NC(=O)Cc3ccccc3Cl)cc2n1
pIC50: 7.30 to 8.00

molecule: NS(=O)(=O)c1cc(NC(=O)Cc2ccccc2Cl)cc2c1CN(Cc1ccc(F)cc1)C2
pIC50: 5.30 to 6.70

molecule: CC1(n2cc3c(S(N)(=O)=O)cc(NC(=O)Cc4ccccc4Cl)cc3n2)CC1
pIC50: 7.30 to 8.00

molecule: NS(=O)(=O)c1cc(NC(=O)Cc2ccccc2Cl)cc2c1cnn2-c1ccc(Cl)cc1
pIC50: 7.30 to 8.00

molecule: NS(=O)(=O)c1cc(NC(=O)Cc2ccccc2Cl)cc2c1cnn2Cc1ccc(Cl)cc1 [Compound 89A]
pIC50: ≥ 8.00

molecule: NS(=O)(=O)c1cc(NC(=O)Cc2ccccc2Cl)cc2nn(CC3CCCCC3)cc12
pIC50: ≥ 8.00

----------
Target: hP2X4 (human purinergic P2X receptor subtype 4) (Homo sapiens, UniProt Q99571)
Sequence (Q99571 1-404 isoform Q99571-2): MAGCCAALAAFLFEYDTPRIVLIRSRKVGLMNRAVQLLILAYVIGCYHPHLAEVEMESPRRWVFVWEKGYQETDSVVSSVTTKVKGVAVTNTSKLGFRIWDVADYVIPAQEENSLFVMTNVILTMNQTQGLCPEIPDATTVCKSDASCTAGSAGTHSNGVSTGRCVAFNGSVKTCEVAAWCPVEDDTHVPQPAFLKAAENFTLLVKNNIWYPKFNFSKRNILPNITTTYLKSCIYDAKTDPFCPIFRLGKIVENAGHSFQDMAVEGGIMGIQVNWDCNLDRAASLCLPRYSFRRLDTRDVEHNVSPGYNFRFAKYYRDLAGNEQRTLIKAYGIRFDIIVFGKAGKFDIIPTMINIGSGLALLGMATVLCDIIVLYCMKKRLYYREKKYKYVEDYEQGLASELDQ
Assay: FLIPR assay of intracellular calcium increase induced by activation of hP2X4 expressed in HEK293 cells (agonist BZ-ATP 2.5 μM)
Format: cell-based
Settings: HEK293 cells stably expressing hP2X4, FLIPR, class symbols, read-out: P2X4 IC50
pIC50: −log10 of the molar value.
property: pIC50

compound: C=CCn1cc2c(S(N)(=O)=O)cc(NC(=O)Cc3ccccc3Cl)cc2n1
property: pIC50
recorded_result: ≥ 8.00

compound: Cc1ccccc1CC(=O)Nc1cc([S@@](C)(=N)=O)c2cn(Cc3ccc(F)cc3)nc2c1
property: pIC50
recorded_result: 5.30 to 6.70

compound: COc1ccc(Cn2cc3c(S(N)(=O)=O)cc(NC(=O)Cc4ccccc4Cl)cc3n2)nc1
property: pIC50
recorded_result: ≥ 8.00

compound: Nc1ccc(Cn2cc3c(S(N)(=O)=O)cc(NC(=O)Cc4ccccc4Cl)cc3n2)cc1
property: pIC50
recorded_result: ≥ 8.00

compound: NS(=O)(=O)c1cc(NC(=O)Cc2ccccc2Cl)cc2cn(CCO)nc12
property: pIC50
recorded_result: 5.30 to 6.70

compound: COc1cccc(Cn2ncc3c(S(N)(=O)=O)cc(NC(=O)Cc4ccccc4Cl)cc32)c1
property: pIC50
recorded_result: 7.30 to 8.00

compound: COCCn1cc2c(S(N)(=O)=O)cc(NC(=O)Cc3ccccc3Cl)cc2n1
property: pIC50
recorded_result: 7.30 to 8.00

compound: COc1ccc(CN(Cc2ccc(OC)cc2)S(=O)(=O)c2cc(NC(=O)Cc3ccccc3Cl)cc3c2cnn3Cc2ccc(C#N)cc2)cc1 [Compound 91A]
property: pIC50
recorded_result: ≥ 8.00

compound: COc1ccc(Cn2cc3c(S(N)(=O)=O)cc(NC(=O)Cc4ccccc4Cl)cc3n2)c(F)c1
property: pIC50
recorded_result: ≥ 8.00

compound: NS(=O)(=O)c1cc(NC(=O)Cc2ccccc2Cl)cc2c1cnn2CC1CCCCC1
property: pIC50
recorded_result: 7.30 to 8.00

compound: C=CCn1ncc2c(S(N)(=O)=O)cc(NC(=O)Cc3ccccc3Cl)cc21
property: pIC50
recorded_result: ≥ 8.00

compound: CN(C)c1cccc(Cn2ncc3c(S(N)(=O)=O)cc(NC(=O)Cc4ccccc4Cl)cc32)c1
property: pIC50
recorded_result: 7.30 to 8.00
